# target-desc: human recombinant core 1 β1,3-Gal-transferase (C1GalT) (Homo sapiens)
# experiment: C1GalT glycosyltransferase assay
# Type: biochemical
# test-context: acceptor substrate 0.5 mM; 0.5 mM GalNAcα-Bn set to 100%
property: C1GalT activity (%)

Please review the following examples before continuing.
| compound | observed-measurement |
| --- | --- |
| CC(=O)N[C@H]1[C@@H](OCc2ccccc2)O[C@H](C)[C@H](O)[C@@H]1O | 68 |
| C=C(C)C1CC=C(CO[C@H]2O[C@H](CO)[C@H](O)[C@H](O)[C@H]2NC(C)=O)CC1 (stereo partly shown) | 102 |
| CC(=O)N[C@H]1[C@@H](OCc2ccccc2)O[C@H](CO[C@@H]2O[C@H](CO)[C@@H](O)[C@H](O)[C@H]2NC(C)=O)[C@H](O)[C@@H]1O | 74 |

(1) CCC(=O)N[C@H]1[C@@H](OCc2ccccc2)O[C@H](CO)[C@H](O)[C@@H]1O
(2) CC(=O)N[C@H]1[C@@H](OCc2ccccc2)O[C@H](CO[C@@H]2O[C@H](CO)[C@H](O)[C@H](O)[C@H]2O)[C@H](O)[C@@H]1O
(3) CC(=O)N[C@H]1C(O)O[C@H](CO)[C@H](O)[C@@H]1O (stereo partly shown) [GalNAc, reference compound]
(4) CC(=O)N[C@H]1[C@@H](OCc2ccccc2)O[C@H](CO[C@@H]2O[C@H](CO)[C@@H](F)[C@H](O)[C@H]2NC(C)=O)[C@H](O)[C@@H]1O
Number of compounds to sort: 4. Sort criterion: C1GalT activity (%), ascending. Please list each label once, in the requested order.
3, 2, 1, 4

###

# target-desc: human recombinant core 1 β1,3-Gal-transferase (C1GalT) (Homo sapiens, UniProt Q9NS00)
# Sequence (Q9NS00 30-363 limits assumed): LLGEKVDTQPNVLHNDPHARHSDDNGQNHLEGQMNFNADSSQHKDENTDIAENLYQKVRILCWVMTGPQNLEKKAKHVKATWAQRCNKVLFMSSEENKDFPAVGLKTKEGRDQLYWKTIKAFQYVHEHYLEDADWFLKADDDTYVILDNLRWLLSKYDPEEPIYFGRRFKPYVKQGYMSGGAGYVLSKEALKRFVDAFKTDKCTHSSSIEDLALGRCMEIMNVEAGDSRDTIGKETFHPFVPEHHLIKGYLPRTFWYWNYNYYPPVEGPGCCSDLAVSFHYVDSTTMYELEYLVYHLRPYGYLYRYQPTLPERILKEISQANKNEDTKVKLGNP
# experiment: C1GalT glycosyltransferase assay
# Assay type: biochemical
# test-context: acceptor substrate 0.5 mM; 0.5 mM GalNAcα-Bn set to 100%
property: C1GalT activity (%)

Please review the following examples before continuing.
| molecule | observed-measurement |
| --- | --- |
| CC(=O)N[C@H]1[C@@H](Oc2ccc([N+](=O)[O-])cc2)O[C@H](CO)[C@H](O)[C@@H]1O | 204 |
| CC(=O)N[C@H]1[C@@H](OCc2ccccc2)O[C@H](COCCCC2CO2)[C@H](O)[C@@H]1O (some centres unmarked) [6-O-(4,5-Anhydro)pentyl-GalNAcα-Bn] | 191 |

(1) CC(=O)N[C@H]1[C@@H](Oc2ccccc2)O[C@H](CO)[C@H](O)[C@@H]1O
(2) CC(=O)N[C@H]1[C@@H](OCc2ccccc2)O[C@H](CO[C@@H]2O[C@H](CO)[C@@H](O[C@@H]3O[C@H](CO)[C@H](O)[C@H](O)[C@H]3O)[C@H](O)[C@H]2O)[C@H](O)[C@@H]1O
(3) CC(=O)N[C@H]1[C@H](OC[C@H]2O[C@H](Oc3ccccc3[N+](=O)[O-])[C@H](NC(C)=O)[C@@H](O)[C@H]2O)O[C@H](CO)[C@@H](O[C@@H]2O[C@H](CO)[C@H](O)[C@H](O)[C@H]2O)[C@@H]1O
Put the entries in order of C1GalT activity (%), starting with the largest number. Please list each label once, in the requested order.
1, 2, 3

###

# C2GnT2 activity (%) annotations
# target-desc: human recombinant core 2/4 β1,6-GlcNAc-transferase (C2GnT2) (Homo sapiens, UniProt O95395)
# Sequence (O95395 27-438): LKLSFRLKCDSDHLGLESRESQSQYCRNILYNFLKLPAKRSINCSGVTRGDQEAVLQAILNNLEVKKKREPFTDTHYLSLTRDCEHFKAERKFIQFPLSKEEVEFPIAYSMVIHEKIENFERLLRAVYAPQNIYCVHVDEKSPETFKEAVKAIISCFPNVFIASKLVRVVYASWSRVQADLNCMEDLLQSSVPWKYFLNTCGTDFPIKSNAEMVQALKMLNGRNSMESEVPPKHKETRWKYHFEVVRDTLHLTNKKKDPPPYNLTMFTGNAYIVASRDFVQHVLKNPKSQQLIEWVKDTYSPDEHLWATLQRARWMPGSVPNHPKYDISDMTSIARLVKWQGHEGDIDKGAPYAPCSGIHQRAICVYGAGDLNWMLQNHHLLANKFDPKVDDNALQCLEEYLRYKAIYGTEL
# Format: biochemical
# test-context: acceptor substrate 0.5 mM; 0.5 mM Galβ1–3GalNAcα-pnp set to 100%

Please review the following examples before continuing.
| substance | C2GnT2 activity (%) |
| --- | --- |
| Ac-G-(Galβ1–3GalNAcα)TTTPIST-NH2 | 8% |
| TET-(Galβ1–3GalNAcα)TSHSTPG | <1% |
| Ac-PT-(Galβ1–3GalNAcα)TTGIST-NH2 | 6% |

Observed C2GnT2 activity (%) on human recombinant core 2/4 β1,6-GlcNAc-transferase (C2GnT2) (Homo sapiens, UniProt O95395), entry "TET-(GlcNAcβ1–3GalNAcα)TSHSTPG" , equals <1%

Observed C2GnT2 activity (%) on human recombinant core 2/4 β1,6-GlcNAc-transferase (C2GnT2) (Homo sapiens, UniProt O95395), entry "AHGVT-(Galβ1–3GalNAcα)SAPDTRPAPGSTAPNA" , equals <1%

Observed C2GnT2 activity (%) on human recombinant core 2/4 β1,6-GlcNAc-transferase (C2GnT2) (Homo sapiens, UniProt O95395), entry "Ac-GT-(Galβ1–3GalNAcα)TTPIST-NH2" , equals 5%

Observed C2GnT2 activity (%) on human recombinant core 2/4 β1,6-GlcNAc-transferase (C2GnT2) (Homo sapiens, UniProt O95395), entry "Ac-P-(Galβ1–3GalNAcα)TTTGIST-NH2" , equals <1%

Observed C2GnT2 activity (%) on human recombinant core 2/4 β1,6-GlcNAc-transferase (C2GnT2) (Homo sapiens, UniProt O95395), entry "AHGVT-(GalNAcα)SAPDTRPAPGSTAPPA" , equals <1%

Observed C2GnT2 activity (%) on human recombinant core 2/4 β1,6-GlcNAc-transferase (C2GnT2) (Homo sapiens, UniProt O95395), entry "TT-(Galβ1–3GalNAcα)TVTPTPTG" , equals <1%

Observed C2GnT2 activity (%) on human recombinant core 2/4 β1,6-GlcNAc-transferase (C2GnT2) (Homo sapiens, UniProt O95395), entry AHGVT-(Galβ1–3GalNAcα)SAPDTRPAPGSTAP- (Galβ1–3GalNAcα)TA , equals <1%

###

# target-desc: human recombinant core 3 β1,3-GlcNAc-transferase (C3GnT) (Homo sapiens, UniProt Q6ZMB0)
# Sequence (Q6ZMB0 32-384 limits assumed): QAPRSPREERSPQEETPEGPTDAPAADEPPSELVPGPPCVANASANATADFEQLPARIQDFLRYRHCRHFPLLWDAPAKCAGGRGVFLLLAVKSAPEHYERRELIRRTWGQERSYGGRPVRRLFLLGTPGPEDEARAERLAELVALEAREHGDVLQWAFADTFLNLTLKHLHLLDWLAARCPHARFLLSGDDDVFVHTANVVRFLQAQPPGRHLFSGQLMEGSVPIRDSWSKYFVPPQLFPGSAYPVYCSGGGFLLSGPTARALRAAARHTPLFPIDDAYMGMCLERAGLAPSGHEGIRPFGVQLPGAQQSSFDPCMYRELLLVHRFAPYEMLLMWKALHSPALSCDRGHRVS
# experiment: C3GnT glycosyltransferase assay
# Type: biochemical
# test-context: acceptor substrate 0.5 mM; 0.5 mM GalNAcα-Bn set to 100%
property: C3GnT activity (%)

Please review the following examples before continuing.
| substance | observed-measurement |
| --- | --- |
| AHGVT-(GalNAcα)SAPDTRPAPGSTAPPA | 15 |
| TTTVTP-(GalNAcα)TPTG | 5 |

(1) TTTV-(GalNAcα)TPTPTG
(2) Ac-GHA-(GalNAcα)TSLPVTG-NH2
Hey, between 1 and 2 which has a smaller measured C3GnT activity (%)? # respond with the chosen item's label
1
(1: 10%, 2: 22%)

###

# C2GnT1 activity (%) annotations
# target-desc: human recombinant core 2 β1,6-GlcNAc-transferase (C2GnT1) (Homo sapiens, UniProt Q02742)
# Sequence (Q02742 33-428 limits assumed): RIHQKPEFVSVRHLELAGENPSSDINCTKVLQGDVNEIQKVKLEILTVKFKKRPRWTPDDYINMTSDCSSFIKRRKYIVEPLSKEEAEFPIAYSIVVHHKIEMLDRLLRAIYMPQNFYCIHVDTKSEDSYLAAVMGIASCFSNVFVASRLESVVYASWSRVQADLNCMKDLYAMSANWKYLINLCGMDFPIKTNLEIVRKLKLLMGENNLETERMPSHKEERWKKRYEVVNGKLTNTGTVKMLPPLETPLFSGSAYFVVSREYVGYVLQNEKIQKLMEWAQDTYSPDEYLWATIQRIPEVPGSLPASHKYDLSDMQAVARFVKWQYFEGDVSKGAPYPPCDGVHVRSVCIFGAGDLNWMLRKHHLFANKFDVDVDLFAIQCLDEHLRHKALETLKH
# experiment: C2GnT1 glycosyltransferase assay
# Type: biochemical
# test-context: acceptor substrate 0.5 mM; 0.5 mM Galβ1–3GalNAcα-pnp set to 100%

Please review the following examples before continuing.
| substance | C2GnT1 activity (%) |
| --- | --- |
| TETTSHS-(GlcNAcβ1–3GalNAcα)TPG | <1% |
| T-(GlcNAcβ1–3GalNAcα)TTVTPTPTG | <1% |
| TE-(GlcNAcβ1–3GalNAcα)TTSHSTPG | <1% |
| TE-(GlcNAcβ1–6GalNAcα)TTSHSTPG | <1% |
| TET-(GlcNAcβ1–3GalNAcα)TSHSTPG | <1% |
| AHGVT-(GalNAcα)SAPDTRPAPGSTAPPA | <1% |
| Ac-P-(Galβ1–3GalNAcβ)TTTPIST-NH2 | 72% |
| AHGVT-(Galβ1–3GalNAcα)SAPDTRPAPGSTAP- (Galβ1–3GalNAcα)TA | 18% |

Would you kindly look at the next entry?
Lookup result for "TETTSHS-(Galβ1–3GalNAcα)TPG" ; measured C2GnT1 activity (%): 70%

###

# target-desc: human recombinant core 1 β1,3-Gal-transferase (C1GalT) (Homo sapiens)
# experiment: C1GalT glycosyltransferase assay
# Format: biochemical
# test-context: acceptor substrate 0.5 mM; 0.5 mM GalNAcα-Bn set to 100%
Marks after values point to notes of the source that are not given here.
# C1GalT activity (%) annotations

| molecule | property | observed-measurement |
| --- | --- | --- |
| CC(=O)N[C@H]1[C@H](OCc2ccccc2)O[C@H](CO)[C@@H](O[C@@H]2O[C@H](CO)[C@H](O)[C@H](O)[C@H]2NC(C)=O)[C@@H]1O [GalNAcβ1–4GlcNAcβ-Bn] | C1GalT activity (%) | <1% |
| CCO[C@H]1[C@@H](O)[C@@H](CO)O[C@H](OCc2ccccc2)[C@@H]1NC(C)=O [3-O-Ethyl-GalNAcα-Bn] | C1GalT activity (%) | <1% |

Lookup result for [2H]C([2H])([2H])O[C@@H]1O[C@H](CO[C@@H]2O[C@H](CO)[C@@H](O)[C@H](O)[C@H]2NC(C)=O)[C@H](O)[C@H](O)[C@H]1O [GlcNAcβ1–6-Galβ-OCD3] ; measured C1GalT activity (%): <1%

Lookup result for OC[C@H]1O[C@H](OCc2ccccc2)C[C@@H](O)[C@H]1O [2-Deoxy-Galα-Bn] ; measured C1GalT activity (%): <1%

Lookup result for CC(=O)N[C@H]1[C@@H](OCc2ccccc2)O[C@H](CO)[C@H](O)[C@@H]1O [GalNAcα-Bn, reference compound] ; measured C1GalT activity (%): 100 ^a %

Lookup result for CCCO[C@H]1[C@@H](O)[C@@H](CO)O[C@H](OCc2ccccc2)[C@@H]1NC(C)=O [3-O-Propyl-GalNAcα-Bn] ; measured C1GalT activity (%): <1%
